Test: AUC in Sprague-Dawley rat at 10 mg/kg, po or 2 mg/kg, iv by LC-MS/MS method
Type: ADME, organism-based
Conditions: plasma
measurement.label: AUC (µg·h/mL)

# compound, measurement.unit, experimental.result
records = [
    ("CN1C[C@H](C(=O)Nc2ccc(Cl)cc2)[C@@H](c2ccc(/C=C/C(=O)Nc3ccccc3N)nn2)C1 (racemic)", "µg·h/mL", 0.116),
]

----------
pIC50: −log10 of the molar value.
The following compounds each carry a recorded pIC50 for UniProt:P56524.
Sequence (P56524 whole entry): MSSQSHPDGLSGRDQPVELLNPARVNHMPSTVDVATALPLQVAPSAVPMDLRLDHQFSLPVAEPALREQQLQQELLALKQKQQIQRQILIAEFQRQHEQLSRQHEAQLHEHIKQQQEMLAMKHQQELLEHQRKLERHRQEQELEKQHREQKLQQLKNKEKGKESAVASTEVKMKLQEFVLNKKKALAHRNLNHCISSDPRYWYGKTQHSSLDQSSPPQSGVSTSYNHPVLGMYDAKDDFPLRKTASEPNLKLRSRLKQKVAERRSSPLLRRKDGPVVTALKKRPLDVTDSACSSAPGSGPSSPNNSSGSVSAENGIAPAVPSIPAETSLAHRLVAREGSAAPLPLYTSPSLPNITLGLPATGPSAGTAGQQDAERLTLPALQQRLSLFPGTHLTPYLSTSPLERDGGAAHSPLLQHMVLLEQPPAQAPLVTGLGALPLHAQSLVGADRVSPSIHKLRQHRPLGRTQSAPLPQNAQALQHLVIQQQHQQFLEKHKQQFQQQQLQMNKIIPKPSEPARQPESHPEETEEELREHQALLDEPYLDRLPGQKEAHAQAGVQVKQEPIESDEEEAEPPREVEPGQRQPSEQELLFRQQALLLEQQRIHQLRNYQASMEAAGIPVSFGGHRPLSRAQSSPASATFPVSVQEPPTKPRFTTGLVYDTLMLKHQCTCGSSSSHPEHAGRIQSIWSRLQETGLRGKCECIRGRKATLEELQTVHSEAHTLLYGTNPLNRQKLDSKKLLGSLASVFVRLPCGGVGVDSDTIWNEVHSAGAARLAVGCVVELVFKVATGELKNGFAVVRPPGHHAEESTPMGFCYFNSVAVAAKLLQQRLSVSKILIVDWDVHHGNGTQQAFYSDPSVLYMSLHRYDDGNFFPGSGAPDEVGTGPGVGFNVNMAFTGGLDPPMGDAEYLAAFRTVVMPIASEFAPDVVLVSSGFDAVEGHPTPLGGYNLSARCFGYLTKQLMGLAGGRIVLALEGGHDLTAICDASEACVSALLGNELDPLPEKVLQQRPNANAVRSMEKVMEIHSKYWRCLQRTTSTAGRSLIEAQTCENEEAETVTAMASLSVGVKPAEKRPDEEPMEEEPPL
measurement.label: pIC50

# compound, study.system, experimental.result
rows = [
    ("CN1C[C@H](C(=O)Nc2ccc(Cl)cc2)[C@@H](c2ccc(/C=C/C(=O)Nc3ccccc3N)cc2)C1", "UniProt:P56524", 4.89),
    ("CN1C[C@@H](C(=O)Nc2ccc(Cl)cc2)[C@H](c2ccc(/C=C/C(=O)Nc3ccccc3N)cc2)C1", "UniProt:P56524", 4.44),
    ("CN1C[C@H](C(=O)Nc2ccc(Cl)cc2)[C@@H](c2ccc(/C=C/C(=O)Nc3ccccc3N)cc2F)C1 (racemic)", "UniProt:P56524", 4.34),
]

----------
Test: Tmax in Sprague-Dawley rat at 10 mg/kg, po or 2 mg/kg, iv by LC-MS/MS method
Assay type: ADME, organism-based
Conditions: in vivo
measurement.label: Tmax (h)

# molecule, experimental.result
data = [
    ("CN1C[C@H](C(=O)Nc2ccc(Cl)cc2)[C@@H](c2ccc(/C=C/C(=O)Nc3ccccc3N)nn2)C1 (racemic)", 4),
]

----------
Biological target: Histone deacetylase (Homo sapiens) (UniProt Q13547+O15379+Q9UBN7+Q92769+Q9UQL6+Q8WUI4+Q9BY41+Q96DB2+P56524+Q9UKV0+Q969S8)
Test: Inhibition of Class 1 histone deacetylase in human HeLa cells assessed as induction in p21 protein expression at 3 uM incubated for 16 hrs by luciferase reporter gene assay relative to HDAC inhibitor entinostat
Format: cell-based
Design: scale not given: the % may be the effect or the level left
A collection of compounds and their measured Activity
measurement.label: Activity

# compound, measurement.label, experimental.result
records = [
    ("CN1C[C@H](C(=O)Nc2ccc(C#N)cc2)[C@@H](c2ccc(/C=C/C(=O)Nc3ccccc3N)cc2)C1 (racemic)", "Activity", "80%"),
    ("CN1C[C@H](C(=O)Nc2ccc(Cl)cn2)[C@@H](c2ccc(/C=C/C(=O)Nc3ccccc3N)cc2)C1 (racemic)", "Activity", "150%"),
    ("CN1C[C@H](C(=O)Nc2ccc(Cl)cc2)[C@@H](c2ccc(/C=C/C(=O)Nc3ccccc3N)cc2)C1 (racemic)", "Activity", "240%"),
    ("COc1ccc(NC(=O)[C@H]2CN(C)C[C@@H]2c2ccc(/C=C/C(=O)Nc3ccccc3N)cc2)cc1 (racemic)", "Activity", "170%"),
    ("CN1C[C@H](C(=O)Nc2ccc(Br)cc2)[C@@H](c2ccc(/C=C/C(=O)Nc3ccccc3N)cc2)C1 (racemic)", "Activity", "40%"),
    ("CN1C[C@H](C(=O)Nc2ccccn2)[C@@H](c2ccc(/C=C/C(=O)Nc3ccccc3N)cc2)C1 (racemic)", "Activity", "140%"),
    ("CC(C)NC(=O)[C@H]1CN(C)C[C@@H]1c1ccc(/C=C/C(=O)Nc2ccccc2N)cc1 (racemic)", "Activity", "70%"),
    ("CCN(CC)C(=O)N1C[C@H](C(=O)Nc2ccc(Cl)cc2)[C@@H](c2ccc(/C=C/C(=O)Nc3ccccc3N)cc2)C1 (racemic)", "Activity", "90%"),
    ("CN1C[C@H](C(=O)Nc2ccc(Cl)cc2)[C@@H](c2ccc(/C=C/C(=O)Nc3ccccc3N)cc2)C1", "Activity", "257%"),
    ("Nc1ccccc1NC(=O)/C=C/c1ccc([C@H]2CN(CCF)C[C@@H]2C(=O)Nc2ccc(Cl)cc2)cc1 (racemic)", "Activity", "180%"),
    ("N#CCN1C[C@H](C(=O)Nc2ccc(Cl)cc2)[C@@H](c2ccc(/C=C/C(=O)Nc3ccccc3N)cc2)C1 (racemic)", "Activity", "190%"),
    ("Cc1ccc(NC(=O)[C@H]2CN(C)C[C@@H]2c2ccc(/C=C/C(=O)Nc3ccccc3N)cc2)cc1 (racemic)", "Activity", "260%"),
    ("Nc1ccccc1NC(=O)/C=C/c1ccc([C@H]2CN(CCO)C[C@@H]2C(=O)Nc2ccc(Cl)cc2)cc1 (racemic)", "Activity", "100%"),
    ("CN1C[C@H](C(=O)Nc2ccccc2F)[C@@H](c2ccc(/C=C/C(=O)Nc3ccccc3N)cc2)C1 (racemic)", "Activity", "170%"),
    ("Nc1ccccc1NC(=O)/C=C/c1ccc([C@H]2CN(CC(F)(F)F)C[C@@H]2C(=O)Nc2ccc(Cl)cc2)cc1 (racemic)", "Activity", "100%"),
    ("CCN1C[C@H](C(=O)Nc2ccc(Cl)cc2)[C@@H](c2ccc(/C=C/C(=O)Nc3ccccc3N)cc2)C1 (racemic)", "Activity", "170%"),
    ("CN1C[C@H](C(=O)Nc2ccc(Cl)c(Cl)c2)[C@@H](c2ccc(/C=C/C(=O)Nc3ccccc3N)cc2)C1 (racemic)", "Activity", "160%"),
    ("CN1C[C@H](C(=O)Nc2ccc(F)c(Cl)c2)[C@@H](c2ccc(/C=C/C(=O)Nc3ccccc3N)cc2)C1 (racemic)", "Activity", "180%"),
    ("Nc1ccccc1NC(=O)/C=C/c1ccc([C@H]2CN(C3COC3)C[C@@H]2C(=O)Nc2ccc(Cl)cc2)cc1 (racemic)", "Activity", "90%"),
    ("CN1C[C@H](C(=O)Nc2ccc(Cl)cc2F)[C@@H](c2ccc(/C=C/C(=O)Nc3ccccc3N)cc2)C1 (racemic)", "Activity", "200%"),
    ("CCNC(=O)N1C[C@H](C(=O)Nc2ccc(Cl)cc2)[C@@H](c2ccc(/C=C/C(=O)Nc3ccccc3N)cc2)C1 (racemic)", "Activity", "40%"),
    ("CN1C[C@H](C(=O)Nc2ccc(F)cc2F)[C@@H](c2ccc(/C=C/C(=O)Nc3ccccc3N)cc2)C1 (racemic)", "Activity", "180%"),
    ("CC(C)N1C[C@H](C(=O)Nc2ccc(Cl)cc2)[C@@H](c2ccc(/C=C/C(=O)Nc3ccccc3N)cc2)C1 (racemic)", "Activity", "230%"),
    ("CN1C[C@H](C(=O)NC2CC2)[C@@H](c2ccc(/C=C/C(=O)Nc3ccccc3N)cc2)C1 (racemic)", "Activity", "80%"),
    ("CN1C[C@H](C(=O)Nc2ccc(Cl)cc2)[C@@H](c2cnc(/C=C/C(=O)Nc3ccccc3N)cn2)C1 (racemic)", "Activity", "> 300%"),
    ("Nc1ccccc1NC(=O)/C=C/c1ccc(C(C(=O)Nc2ccc(Br)cc2)N2CC[C@H](O)C2)cc1 (some centres undefined)", "Activity", "150%"),
    ("CN1C[C@H](C(=O)Nc2ccc(C3CC3)cc2)[C@@H](c2ccc(/C=C/C(=O)Nc3ccccc3N)cc2)C1 (racemic)", "Activity", "60%"),
    ("CN1C[C@H](C(=O)Nc2ccc(C(F)(F)F)cc2)[C@@H](c2ccc(/C=C/C(=O)Nc3ccccc3N)cc2)C1 (racemic)", "Activity", "10%"),
    ("CN1C[C@H](C(=O)Nc2ccccc2)[C@@H](c2ccc(/C=C/C(=O)Nc3ccccc3N)cc2)C1 (racemic)", "Activity", "270%"),
]
